Cited source for all entries: patent US20230382920A1

# ASSAY SUMMARY: Pharmacokinetics study of KDG-0320-0A in male CD1 mice (Example 1)
# Format: in vivo
# RECORDED CONDITIONS: mouse, plasma, 30 mg/kg IP, 0.25 h, read-out: Concentration IP_Mean
Structures can show the parent of a compound that is named as a salt.
RECORDED ENDPOINT: concentration at 0.25 h

MOLECULE	RECORDED ENDPOINT	RESULT
Cc1n[nH]c2c1C(c1cc(C#C[C@H]3CC[C@H](NC(=O)OC(C)(C)C)CC3)cc(CO)c1)(C(C)C)C(C#N)=C(N)O2 (stereo partly shown) [KDG-0320, hydrochloride]	concentration at 0.25 h	7460 ng/mL

----------
# ASSAY SUMMARY: Pharmacokinetics study of KDG-0320-0A in male CD1 mice (Example 1)
# Type: in vivo
# RECORDED CONDITIONS: mouse, plasma, 30 mg/kg IP, 2 h, read-out: Concentration IP_Mean
Where a name gives a salt, the structure may show the parent alone.
RECORDED ENDPOINT: concentration at 2 h

COMPOUND	RECORDED ENDPOINT	RESULT
Cc1n[nH]c2c1C(c1cc(C#C[C@H]3CC[C@H](NC(=O)OC(C)(C)C)CC3)cc(CO)c1)(C(C)C)C(C#N)=C(N)O2 (stereo partly shown) [KDG-0320, hydrochloride]	concentration at 2 h	0.589 µg/mL

----------
# ASSAY SUMMARY: Pharmacokinetics study of KDG-0388 in male CD1 mice (Example 2)
# Type: in vivo
# RECORDED CONDITIONS: male, mouse, plasma; CD1 mice, 1 mg/kg IV

COMPOUND	AUC(0-inf) [ng·h/mL]
Cc1n[nH]c2c1C(c1cc(C#C[C@H]3C[C@@H](NC(=O)OC(C)(C)C)C3)cc(CO)c1)(C(C)C)C(C#N)=C(N)O2 (stereo partly shown) [KDG-0388]	79.3

----------
# ASSAY SUMMARY: Pharmacokinetics study of KDG-0388 in male CD1 mice (Example 2)
# Assay type: in vivo
# RECORDED CONDITIONS: male, mouse; CD1 mice, plasma, 1 mg/kg IV, 0.5 h; read-out: Concentration IV_Mean

MOLECULE	ENDPOINT UNIT	concentration at 0.5 h
Cc1n[nH]c2c1C(c1cc(C#C[C@H]3C[C@@H](NC(=O)OC(C)(C)C)C3)cc(CO)c1)(C(C)C)C(C#N)=C(N)O2 (stereo partly shown)	ng/mL	24.9

----------
# ASSAY SUMMARY: Pharmacokinetics study of KDG-0388 in male CD1 mice (Example 2)
# Type: in vivo
# RECORDED CONDITIONS: male, mouse; CD1 mice, plasma, 1 mg/kg IV, 0.25 h; read-out: Concentration IV_Mean
RECORDED ENDPOINT: concentration at 0.25 h

MOLECULE	RESULT
Cc1n[nH]c2c1C(c1cc(C#C[C@H]3C[C@@H](NC(=O)OC(C)(C)C)C3)cc(CO)c1)(C(C)C)C(C#N)=C(N)O2 (stereo partly shown)	60.6 ng/mL

----------
# ASSAY SUMMARY: Pharmacokinetics study of KDG-0388 in male CD1 mice (Example 2)
# Assay type: in vivo
# RECORDED CONDITIONS: mouse, plasma; male CD1 mice, 200 mg/kg PO

MOLECULE	Tmax (h)
Cc1n[nH]c2c1C(c1cc(C#C[C@H]3C[C@@H](NC(=O)OC(C)(C)C)C3)cc(CO)c1)(C(C)C)C(C#N)=C(N)O2 (stereo partly shown)	2
